Hello, the source for this data is the supplement of paper PMC9732359, in case you need it.

assayMethodText: protein stability index of a GFP-peptide fusion (yeast GPS) (PSI 1-4); higher = more stable; sorted into four equal gates, so the index is relative within each strain
cond: san1∆
observable: protein stability index
Number only, please.

These recorded examples may help you get a feel for the data.
AEKKIPLVIRRYLPDGS [RPO26]    3.45
TTVFFSRQKSGLFDSFT [YML031W/NDC1]    1.54
CVEWRLPEIAKEIYTTL [YJR042W/NUP85]    1.52
CRVCSSHTGLVRKYDLN [RPS29B]    2.38
TKSGATTSEKQEVTNEA [GAL11]    2.9
AGALNLASPEVKVHMDS [DIS3]    2.99
DTSGLKISNSEFFNPEI [SIN4]    3.1
DSEERDPKLEKCLNYRN [ITC1]    2.71

For this sequence ( LRLTEQKSPKIRDPLTQ [RPC82] ), measured protein stability index is 1.91

----------
Here, each record is paired with measured protein stability index data.
assayMethodText: protein stability index of a GFP-peptide fusion (yeast GPS) (PSI 1-4); higher = more stable; sorted into four equal gates, so the index is relative within each strain
cond: san1∆
Number only, please.

These recorded examples may help you get a feel for the data.
RAFQKQPHIFNNPKVKT [RPS11A]    2.59
VHKERHDGGFDLVHIKD [RPS4A]    1.61
LEHDVEYRPFSKKVLEC [DIS3]    3.48

Moving on to another sequence below.
For this sequence ( QWSRIVLQNVFKLVSTP [MED1] ), measured protein stability index is 1.23

----------
Here, each record is paired with measured protein stability index data.
assayMethodText: protein stability index of a GFP-peptide fusion (yeast GPS) (PSI 1-4); higher = more stable; sorted into four equal gates, so the index is relative within each strain
cond: doa10∆
Number only, please.

NQLVEPNRIKLSKEVPF [SRB5]    2.42
LKEILNVAKNMKTPSLT [RPO21]    3.33

For this sequence ( LTADARSMIEHARTAAV [PUP2] ), measured protein stability index is 2.11

For this sequence ( PYAIIKGKARLGTLVNQ [RPL8B] ), measured protein stability index is 1.83

For this sequence ( IMATNRLDILDPALLRP [RPT6] ), measured protein stability index is 2.92

----------
Here, each record is paired with measured protein stability index data.
assayMethodText: protein stability index of a GFP-peptide fusion (yeast GPS) (PSI 1-4); higher = more stable; sorted into four equal gates, so the index is relative within each strain
cond: san1∆
Number only, please.

These recorded examples may help you get a feel for the data.
GCENPADVFRRCLVAVI [SRP72]    2.29
VKAAINFSNVTDLTNNS [YIL149C/MLP2]    3.35
NLDGTKAVKLRKSYKNQ [ROX3]    3.39
TVEPVYQMHIKTSKDIA [FAS1]    1.31
ADLERFFLSIYFFYASR [YJL039C/NUP192]    1.22
NNYKDLLAVAIAASYHY [RPP0]    1.39
NPTKSKEILDNILPFLW [ECM29]    2.8
LHPQLHEVQYQESSSTL [SIN4]    2.41
TGAGKGSIGAEVLQGLL [FAS2]    3.47
DDEPTTPAELVGKFLGY [FAS1]    3.16

For this sequence ( QVIKNEVCAKMPNIELY [SSN2] ), measured protein stability index is 2.7

For this sequence ( QINNVHLIPNEIKGASE [RPN4] ), measured protein stability index is 2.42

For this sequence ( GNSERPSAVAGFINQKN [YIL149C/MLP2] ), measured protein stability index is 2.93
